Tested on: Protein cereblon/Androgen receptor (Homo sapiens), P10275+Q96SW2 [UNDEFINED MUTATION]
Sequence (P10275 whole entry, looked up, change not shown, canonical isoform): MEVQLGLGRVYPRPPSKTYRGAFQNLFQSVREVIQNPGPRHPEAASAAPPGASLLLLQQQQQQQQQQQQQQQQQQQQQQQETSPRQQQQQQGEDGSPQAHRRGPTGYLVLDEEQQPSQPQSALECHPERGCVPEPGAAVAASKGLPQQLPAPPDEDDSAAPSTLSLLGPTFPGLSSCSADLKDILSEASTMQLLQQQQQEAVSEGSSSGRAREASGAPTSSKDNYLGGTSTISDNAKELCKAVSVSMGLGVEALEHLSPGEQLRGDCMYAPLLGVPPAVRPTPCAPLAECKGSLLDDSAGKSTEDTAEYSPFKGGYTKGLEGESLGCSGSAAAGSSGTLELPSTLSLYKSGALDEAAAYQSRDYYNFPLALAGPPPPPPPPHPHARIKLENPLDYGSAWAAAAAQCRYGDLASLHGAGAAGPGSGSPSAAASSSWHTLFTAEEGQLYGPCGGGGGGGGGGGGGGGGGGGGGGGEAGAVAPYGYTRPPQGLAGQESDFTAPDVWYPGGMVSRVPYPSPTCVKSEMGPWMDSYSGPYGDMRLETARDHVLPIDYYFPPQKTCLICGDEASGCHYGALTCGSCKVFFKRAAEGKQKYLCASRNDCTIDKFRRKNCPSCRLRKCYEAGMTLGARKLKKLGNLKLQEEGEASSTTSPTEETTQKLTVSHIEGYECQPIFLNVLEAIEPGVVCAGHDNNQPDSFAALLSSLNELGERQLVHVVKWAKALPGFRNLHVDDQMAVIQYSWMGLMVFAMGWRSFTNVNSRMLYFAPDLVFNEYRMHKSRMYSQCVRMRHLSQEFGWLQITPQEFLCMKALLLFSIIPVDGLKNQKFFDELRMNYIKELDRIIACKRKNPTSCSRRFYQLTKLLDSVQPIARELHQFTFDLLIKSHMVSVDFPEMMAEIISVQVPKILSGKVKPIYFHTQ
Sequence (Q96SW2 whole entry, looked up, change not shown, canonical isoform): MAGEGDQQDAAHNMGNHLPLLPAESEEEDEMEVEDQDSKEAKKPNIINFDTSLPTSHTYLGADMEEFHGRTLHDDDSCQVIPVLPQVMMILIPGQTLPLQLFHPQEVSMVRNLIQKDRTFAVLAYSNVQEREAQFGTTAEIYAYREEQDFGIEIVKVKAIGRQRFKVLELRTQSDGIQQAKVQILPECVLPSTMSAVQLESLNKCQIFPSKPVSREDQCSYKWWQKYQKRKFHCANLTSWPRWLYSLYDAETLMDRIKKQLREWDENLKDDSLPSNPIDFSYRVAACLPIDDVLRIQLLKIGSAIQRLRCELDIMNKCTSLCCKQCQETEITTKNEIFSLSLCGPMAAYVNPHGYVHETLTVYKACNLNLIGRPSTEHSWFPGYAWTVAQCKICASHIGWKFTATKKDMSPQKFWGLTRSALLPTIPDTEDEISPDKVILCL
Experiment: PROTAC activity at CRBN/Androgen receptor splice variant 7 in human VCaP cells assessed as induction of AR-V7 degradation at 0.01 uM incubated for 24 hrs by Western blot analysis relative to control
Assay type: cell-based
Property: Activity; scope: individual compounds

(Q) Using the record for COc1ccc(C(C)(C)c2ccc(OCC3CCN(C(=O)CCCCCNc4ccc5c(c4)C(=O)N(C4CCC(=O)NC4=O)C5=O)CC3)cc2)cc1 (stereo not drawn) , report its Activity.
(A) 23.3%

(Q) Using the record for COc1ccc(C(C)(C)c2cc(Cl)c(OCC3CCN(C(=O)CCCCCNc4ccc5c(c4)C(=O)N(C4CCC(=O)NC4=O)C5=O)CC3)c(C#N)c2)cc1 (stereo not drawn) , report its Activity.
(A) 85.1%

(Q) Using the record for CC(C)(c1ccc(OCC2CCOCC2)cc1)c1cc(Cl)c(OCC2CCN(C(=O)CCCCCNc3ccc4c(c3)C(=O)N(C3CCC(=O)NC3=O)C4=O)CC2)c(C#N)c1 (stereo not drawn) , report its Activity.
(A) < 5%

(Q) Using the record for CC(C)(c1ccc(OCCCCl)cc1)c1ccc(OCC2CCN(C(=O)CCCCCNc3ccc4c(c3)C(=O)N(C3CCC(=O)NC3=O)C4=O)CC2)cc1 (stereo not drawn) , report its Activity.
(A) < 5%

(Q) Using the record for CC(C)(c1ccc(OCC2COC2)cc1)c1cc(Cl)c(OCC2CCN(C(=O)CCCCCNc3ccc4c(c3)C(=O)N(C3CCC(=O)NC3=O)C4=O)CC2)c(C#N)c1 (stereo not drawn) , report its Activity.
(A) 34.8%

(Q) Using the record for COc1ccc(C(C)(C)c2cc(Cl)c(OCC3CCN(C(=O)CCCCCNc4ccc(C(=O)N[C@H]5CCC(=O)NC5=O)c(F)c4)CC3)c(C#N)c2)cc1 , report its Activity.
(A) < 5%

(Q) Using the record for CC(C)(c1ccc(OCC2CN(S(C)(=O)=O)C2)cc1)c1cc(Cl)c(OCC2CCN(C(=O)CCCCCNc3ccc4c(c3)C(=O)N(C3CCC(=O)NC3=O)C4=O)CC2)c(C#N)c1 (stereo not drawn) , report its Activity.
(A) < 5%

(Q) Using the record for CC(C)(c1ccc(OCC2CCOC2)cc1)c1cc(Cl)c(OCC2CCN(C(=O)CCCCCNc3ccc4c(c3)C(=O)N(C3CCC(=O)NC3=O)C4=O)CC2)c(C#N)c1 (stereo not drawn) , report its Activity.
(A) 43.6%
